- tested-target: Peroxisome proliferator-activated receptor alpha (Homo sapiens) (UniProt Q07869)
- Sequence (Q07869 whole entry, looked up): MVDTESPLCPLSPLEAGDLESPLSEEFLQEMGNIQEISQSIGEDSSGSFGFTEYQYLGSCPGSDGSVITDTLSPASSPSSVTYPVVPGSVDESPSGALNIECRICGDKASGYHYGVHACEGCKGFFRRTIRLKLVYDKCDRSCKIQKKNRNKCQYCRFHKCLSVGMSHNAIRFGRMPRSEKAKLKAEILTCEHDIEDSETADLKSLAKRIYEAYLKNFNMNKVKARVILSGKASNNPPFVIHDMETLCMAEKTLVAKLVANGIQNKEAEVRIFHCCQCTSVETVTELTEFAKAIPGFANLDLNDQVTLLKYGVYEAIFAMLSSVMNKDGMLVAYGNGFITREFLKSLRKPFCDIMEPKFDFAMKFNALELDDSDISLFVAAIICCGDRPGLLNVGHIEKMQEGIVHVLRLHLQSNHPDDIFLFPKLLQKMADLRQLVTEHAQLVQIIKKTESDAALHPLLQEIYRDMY
- procedure-text: Agonist activity at human PPARalpha expressed in human MCF7 cells coexpressing TIF2 by luciferase reporter gene assay
pEC50: −log10 of the molar value.
recorded-endpoint: pEC50

INSERT INTO measurements (chemical_structure, recorded_endpoint, observed_measurement) VALUES
  ('CCCCCCCC/C=C\CCCCCCCCNC(=O)c1nn(-c2ccc(Cl)cc2Cl)c(-c2ccc(Cl)cc2)c1C', 'pEC50', 6.33),
  ('CCCCCCCC/C=C\CCCCCCCCNC(=O)c1cc(-c2ccc(Cl)cc2)n(-c2ccc(Cl)cc2Cl)n1', 'pEC50', 6.65);

[I] CCCCCCCC/C=C\CCCCCCCCNC(=O)c1cc(-c2ccc(Cl)cc2)n(-c2ccc(Cl)cc2)n1
[II] CCCCCCCC/C=C\CCCCCCCCNC(=O)c1cc(-c2ccc(Cl)cc2)n(-c2ccccc2)n1
-- ask Of I and II , which carries the smaller reported pEC50 figure? Please indicate the selected item by its label.
-- reply I
